target: BIR3 domain of human XIAP (Homo sapiens, UniProt P98170); construct: BIR3 domain of human XIAP (residues 252-350) fused to a His-tag; His-tag (cleaved yes); made in house; host or cells: Escherichia coli; experiment: XIAP in vitro competitive displacement binding assay (fluorescence polarization); conditions: at 0.04 μM; read-out: Xiap IC50 or PI (percent inhibition)
Sequence (P98170 252-350): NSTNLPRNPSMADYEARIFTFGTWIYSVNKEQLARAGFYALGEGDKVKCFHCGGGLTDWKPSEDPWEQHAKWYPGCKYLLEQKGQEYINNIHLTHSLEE
Structures can show the parent of a compound that is named as a salt.

{"Compound": "Cc1cn(C[C@H]2CN[C@H](C)CN2CC(=O)N2CC(C)(C)c3ncc(Cc4ccc(F)cc4)cc32)ccc1=O [Example 38, dihydrochloride]", "Units label": "%", "inhibition at 0.04 µM": 48}
{"Compound": "Cc1cc(C[C@H]2CN[C@H](C)CN2CC(=O)N2CC(C)(C)c3ncc(Cc4ccc(F)cc4F)cc32)n(C)n1 [Example 22, dihydrochloride]", "Units label": "%", "inhibition at 0.04 µM": 47}
{"Compound": "CCc1nccn1C[C@H]1CN[C@H](C)CN1CC(=O)N1CC(C)(C)c2ncc(Cc3ccc(F)cc3)cc21 [Example 4, dihydrochloride]", "Units label": "%", "inhibition at 0.04 µM": 35}
{"Compound": "Cc1ncn(C[C@H]2CN[C@H](C)CN2CC(=O)N2CC(C)(C)c3ncc(Cc4ccc(F)cc4)cc32)c1C [Example 3, dihydrochloride]", "Units label": "%", "inhibition at 0.04 µM": 34}
{"Compound": "C[C@@H]1CN(CC(=O)N2CC(C)(C)c3ncc(Cc4ccc(F)cc4)cc32)[C@@H](Cn2ccnc2Cl)CN1 [Example 8, dihydrochloride]", "Units label": "%", "inhibition at 0.04 µM": 36}
{"Compound": "Cc1ccc(=O)n(C[C@H]2CN[C@H](C)CN2CC(=O)N2CC(C)(C)c3ncc(Cc4ccc(F)cc4)cc32)c1 [Example 9, dihydrochloride]", "Units label": "%", "inhibition at 0.04 µM": 35}

###

Recorded inhibition at […] for the following compounds
target: BIR3 domain of human cIAP-1 (Homo sapiens); construct: human cIAP-1 (residues 267-363) fused to a GST-tag; GST-tag (cleaved yes); made in house; host or cells: Escherichia coli; experiment: cIAP-1 in vitro competitive displacement binding assay (fluorescence polarization); conditions: at 0.012 μM; read-out: cIAP1 IC50 or PI (percent inhibition)
Sequence (Q13490 267-363): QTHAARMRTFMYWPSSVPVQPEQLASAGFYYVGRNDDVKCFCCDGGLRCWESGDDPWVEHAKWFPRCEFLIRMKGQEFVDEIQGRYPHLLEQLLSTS
Counter-ions that a name gives are not always drawn.
Reported metric: inhibition at […] (%)

{"Compound": "Cc1ncn(C[C@H]2CN[C@H](C)CN2CC(=O)N2CC(C)(C)c3ncc(Cc4ccc(F)cc4)cc32)c1C [Example 3, dihydrochloride]", "Tested on": "BIR3 domain of human cIAP-1 (Homo sapiens)", "Reported metric": "inhibition at […]", "Value observed": 99}
{"Compound": "Cc1cn(C[C@H]2CN[C@H](C)CN2CC(=O)N2CC(C)(C)c3ncc(Cc4ccc(F)cc4)cc32)ccc1=O [Example 38, dihydrochloride]", "Tested on": "BIR3 domain of human cIAP-1 (Homo sapiens)", "Reported metric": "inhibition at […]", "Value observed": 94}
{"Compound": "Cc1ncnn1C[C@H]1CN[C@H](C)CN1CC(=O)N1CC(C)(C)c2ncc(Cc3ccc(F)cc3)cc21 [Example 21]", "Tested on": "BIR3 domain of human cIAP-1 (Homo sapiens)", "Reported metric": "inhibition at […]", "Value observed": 95}
